Exercise: for every item that follows, state its recorded 40 nM Ag Bound (RU).
study_system: T1, mouse NPR1 extracellular domain expressed with a C-terminal myc-myc-hexahistidine (mouse, UniProt P18293 29-469)
T1 construct: also called mNPR1-MMH
T1 sequence (P18293 other isoform, or with tags, fused parts or gaps): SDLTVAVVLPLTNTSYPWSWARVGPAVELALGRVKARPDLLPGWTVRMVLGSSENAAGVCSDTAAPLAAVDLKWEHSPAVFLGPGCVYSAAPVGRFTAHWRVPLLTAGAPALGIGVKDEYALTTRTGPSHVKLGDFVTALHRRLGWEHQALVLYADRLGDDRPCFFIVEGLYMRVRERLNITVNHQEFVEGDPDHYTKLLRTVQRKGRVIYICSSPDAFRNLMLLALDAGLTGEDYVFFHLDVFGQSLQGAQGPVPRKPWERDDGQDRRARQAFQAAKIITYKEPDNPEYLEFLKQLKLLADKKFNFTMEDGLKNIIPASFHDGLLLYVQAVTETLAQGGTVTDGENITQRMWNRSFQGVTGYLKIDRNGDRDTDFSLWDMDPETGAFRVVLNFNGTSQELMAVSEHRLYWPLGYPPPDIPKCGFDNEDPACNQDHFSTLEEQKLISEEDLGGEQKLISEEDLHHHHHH
assay_procedure: SPR Biacore 8K, mAb captured via anti-hFc, 37 C
One number for each entry, in RU.

Illustrative cases are given below, each with its answer.
1. REGN7541 (antibody, human IgG4 S228P, kappa, V domains shown, also called mAb38067) VH: EVQLVESGGGLVQPGGSLRLSCAASGFTFSSYAMSWVRQAPGKGLEWVSTISGSGTNTYYADSVKGRFTISNDNSKNTLYLQMNSLRAEDTAVYYCANYDILTGHSFEYWGQGTLVTVSS VL: AIQMTQSPSSLSASVGDRVTITCRASQGIRNDLGWYQQKPGKAPELLIYAASRLPSGVPLRFSGSGSGTDFTLTISSLQPEDVATYYCLQDYNYPFTFGPGTKVDIKR : 0
2. H4H22034 (antibody, human IgG4 S228P, kappa, V domains shown, also called H4H22034N; mAb22034) VH: EVQLLESGGDLVQPGGSLRLSCAASGFTFSDYAMIWVRQTPGKGLEWVSGISGGGGSTDYADSVKGRFTTSRDNVKNAMYLQMNSLRTEDTAVYYCAREDQLPSYHNYYGMDVWGQGTTVTVSS VL: DIQMTQSPSSVSASVGDRVTITCRASQGINNYLAWFQQKPGKAPKSLIYGASSLQSGVPSKFSGSRSGIDFTLTISSLQPEDFATYYCQQYNSYPYTFGQGTKLEIKR : 0
3. REGN7548 (antibody, human IgG4 S228P, kappa, V domains shown, also called mAb38090) VH: QVQLVQSGAEVKKPGASVKVSCKASGYTFTSYYIHWVRQAPGQGLEWMGIISPSDGYTSYAQNFQGRVTMTRDTSTNTVYMDLSSLRSEDTAMFYCARNDPLTTVALDYWGQGTLVTVSS VL: AIQMTQSPSSLSASVGDRVTITCRASQGIRYDLGWFQQKPGKAPKLLIHAASSLQSGVPSRFSGSGSGTDFTLTISSLQPEDFATYYCLQDYNYPFTFGQGTKLEIKR : 0

Here's the next entry for you.
Exercise: Returns the measured 40 nM Ag Bound (RU) for the input binder. Input: REGN7544 (antibody, human IgG4 S228P, kappa, V domains shown, also called mAb38072) VH: EVQLVESGGGLVQPGGSLRLSCAASGFSFVSYVMGWVRQAPGKGLEWVSSISGSLTNTYYADPVKGRFTISRDNSKNTLYLQMNSLRAEDTAAYYCVTYDILTGHLFDYWGQGTLVTVSS VL: AIQMTQSPSSLSASVGDRVTITCRSSQGIRNDFGWYQQKPGKAPKLLIYAASRLQSGVPSRFSGSGSGTDFTLTINNLQPEDFATYYCLQDYTYPFTFGPGTKVDIKR
Key: 0
